Biological target: MBP-FoxP1dN (Mus musculus, UniProt P58462 326-579)
Sequence: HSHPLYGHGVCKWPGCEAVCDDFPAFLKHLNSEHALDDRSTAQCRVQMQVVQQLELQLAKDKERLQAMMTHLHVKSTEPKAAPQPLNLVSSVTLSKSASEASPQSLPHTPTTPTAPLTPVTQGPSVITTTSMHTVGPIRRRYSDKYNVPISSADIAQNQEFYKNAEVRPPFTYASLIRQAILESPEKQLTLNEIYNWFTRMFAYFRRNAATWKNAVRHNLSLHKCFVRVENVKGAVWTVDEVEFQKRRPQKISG
Experiment: PD-seq (MBP pull-down with sequencing); 20 mM Tris-HCl pH 7.5, 100 mM NaCl, 1.5 mM MgCl2, 0.4 uM protein, 0.1 uM dsDNA library, 30 min, room temperature, amylose pull-down; high values mean tight binding
Settings: protein: recombinant; tags: His6-MBP; chain copies: 2; dsDNA, one strand shown
The full ranking holds about 16,000 sequences; the median of “rpm ratio (pull-down/input)” is about 0.94, and the highest 2% start at about 1.7. This excerpt belongs to a sample that is enriched for the highest values.
Reported property: binding signal

>>> df
                             query_sequence                             result
0  GATGATTGTTCTCCCAGCTGATGAATTATTAACCTCGAGTAAACAAATTTTCCTAATCTTTCTGTTCAAGCGCCATCTAC   1.06 RPM ratio (pull-down/input)
1  GATGATTGTTCTCCCAGCTGATGAATTACAATAATCGAGTAAACAAATTTTCCTAATCTTTCTGTTCAAGCGCCATCTAC   1.83 RPM ratio (pull-down/input)
2  GATGATTGTTCTCCCAGCTGATGAATTTGAGCTCTCGAGTAAACAAATTTTCCTAATCTTTCTGTTCAAGCGCCATCTAC  0.775 RPM ratio (pull-down/input)
3  GATGATTGTTCTCCCAGCTGATGAATTACAATTATCGAGTAAACAAATTTTCCTAATCTTTCTGTTCAAGCGCCATCTAC   1.51 RPM ratio (pull-down/input)
4  GATGATTGTTCTCCCAGCTGATGAATTATACCCGTCGAGTAAACAAATTTTCCTAATCTTTCTGTTCAAGCGCCATCTAC  0.898 RPM ratio (pull-down/input)
5  GATGATTGTTCTCCCAGCTGATGAATTCACGGGTTCGAGTAAACAAATTTTCCTAATCTTTCTGTTCAAGCGCCATCTAC  0.766 RPM ratio (pull-down/input)
6  GATGATTGTTCTCCCAGCTGATGAATTACAGCAATCGAGTAAACAAATTTTCCTAATCTTTCTGTTCAAGCGCCATCTAC   1.28 RPM ratio (pull-down/input)

* * *

Biological target: MBP-FoxP1dN (Mus musculus, UniProt P58462 326-579)
Sequence: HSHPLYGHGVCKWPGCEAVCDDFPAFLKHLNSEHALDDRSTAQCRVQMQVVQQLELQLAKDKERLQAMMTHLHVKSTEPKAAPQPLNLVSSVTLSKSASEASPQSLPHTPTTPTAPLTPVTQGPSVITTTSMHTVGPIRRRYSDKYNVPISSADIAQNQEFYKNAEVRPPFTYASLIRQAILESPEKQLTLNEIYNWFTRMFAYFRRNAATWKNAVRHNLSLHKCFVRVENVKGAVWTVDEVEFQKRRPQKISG
Test: PD-seq (MBP pull-down with sequencing); 20 mM Tris-HCl pH 7.5, 100 mM NaCl, 1.5 mM MgCl2, 0.4 uM protein, 0.1 uM dsDNA library, 30 min, room temperature, amylose pull-down; high values mean tight binding
Conditions: protein: recombinant; tags: His6-MBP; chain copies: 2; dsDNA, one strand shown
In all, about 16,000 sequences were measured (“rpm ratio (pull-down/input)”: median about 0.94, highest 2% from about 1.7 on). For the sample, the highest values were picked, then their nearest neighbours and some sequences at random.
Measured binding signal by item
Reported property: binding signal

In [3]: df
Out[3]:
                             query_sequence                             result
0  GATGATTGTTCTCCCAGCTGATGAATTCCAAGGATCGAGTAAACAAATTTTCCTAATCTTTCTGTTCAAGCGCCATCTAC  0.795 RPM ratio (pull-down/input)
1  GATGATTGTTCTCCCAGCTGATGAATTAAGGTGCTCGAGTAAACAAATTTTCCTAATCTTTCTGTTCAAGCGCCATCTAC  0.849 RPM ratio (pull-down/input)
2  GATGATTGTTCTCCCAGCTGATGAATTCTGAATATCGAGTAAACAAATTTTCCTAATCTTTCTGTTCAAGCGCCATCTAC  0.974 RPM ratio (pull-down/input)
3  GATGATTGTTCTCCCAGCTGATGAATTTTCAATATCGAGTAAACAAATTTTCCTAATCTTTCTGTTCAAGCGCCATCTAC   1.06 RPM ratio (pull-down/input)
4  GATGATTGTTCTCCCAGCTGATGAATTGTAAATATCGAGTAAACAAATTTTCCTAATCTTTCTGTTCAAGCGCCATCTAC   2.72 RPM ratio (pull-down/input)
5  GATGATTGTTCTCCCAGCTGATGAATTGCAAATATCGAGTAAACAAATTTTCCTAATCTTTCTGTTCAAGCGCCATCTAC   1.85 RPM ratio (pull-down/input)
6  GATGATTGTTCTCCCAGCTGATGAATTTCTAATATCGAGTAAACAAATTTTCCTAATCTTTCTGTTCAAGCGCCATCTAC   1.09 RPM ratio (pull-down/input)

Origin of measurements: paper PMC12820563
